Lab note: Ki readings collected with Carbonic anhydrase 2 (Homo sapiens, UniProt P00918) for the following compounds.
READOUT_NAME: Ki (nM)

INSERT INTO results (compound, reported_result) VALUES
  ('NS(=O)(=O)c1ccc(N/C(S)=N\Cc2ccccn2)cc1', 45),
  ('CC(O)C(NC(=S)Nc1ccc(S(N)(=O)=O)cc1)C(=O)O (stereo unspecified)', 4),
  ('NS(=O)(=O)c1ccc(N/C(S)=N\c2cccc(C(=O)O)c2)cc1', 18),
  ('NS(=O)(=O)c1ccc(N/C(S)=N/C(Cc2ccc(O)c(O)c2)C(=O)O)cc1 (stereo unspecified)', 7),
  ('NS(=O)(=O)c1ccc(NC(=S)N2CCCC2C(=O)O)cc1 (stereo unspecified)', 25),
  ('NS(=O)(=O)c1ccc(N/C(S)=N/C(Cc2ccc(O)cc2)C(=O)O)cc1 (stereo unspecified)', 5),
  ('NS(=O)(=O)c1ccc(NC(=S)NC(Cc2cnc[nH]2)C(=O)NCC(=O)O)cc1 (stereo unspecified)', 1),
  ('NS(=O)(=O)c1ccc(N/C(S)=N/C(Cc2c[nH]c3ccccc23)C(=O)O)cc1 (stereo unspecified)', 11),
  ('NC(=O)CC(/N=C(\S)Nc1ccc(S(N)(=O)=O)cc1)C(=O)O (stereo unspecified)', 6),
  ('NS(=O)(=O)c1ccc(N=C=S)cc1', 185),
  ('CC(C)CC(/N=C(\S)Nc1ccc(S(N)(=O)=O)cc1)C(=O)NCC(=O)O (stereo unspecified)', 5);

* * *

Species on record: Oryctolagus cuniculus
READOUT_NAME: Delta IOP (mmHg)

INSERT INTO measurements (molecule, reported_result) VALUES
  ('NS(=O)(=O)c1ccc(N/C(S)=N/CCC(=O)NC(Cc2c[nH]cn2)C(=O)O)cc1 (stereo unspecified)', 1),
  ('NS(=O)(=O)c1ccc(N/C(S)=N/C(Cc2ccccc2)C(=O)O)cc1 (stereo unspecified)', 4),
  ('NS(=O)(=O)c1ccc(N/C(S)=N/C(CO)C(=O)O)cc1 (stereo unspecified)', 8),
  ('NS(=O)(=O)c1ccc(N/C(S)=N\c2ccccc2C(=O)O)cc1', 4.3),
  ('NC(=O)CC(/N=C(\S)Nc1ccc(S(N)(=O)=O)cc1)C(=O)O (stereo unspecified)', 7),
  ('NS(=O)(=O)c1ccc(N/C(S)=N\CC(=O)O)cc1', 3),
  ('NS(=O)(=O)c1ccc(N/C(S)=N/C(C(=O)O)C(O)c2ccccc2)cc1 (stereo unspecified)', 9),
  ('N=C(N)NCCCC(/N=C(\S)Nc1ccc(S(N)(=O)=O)cc1)C(=O)O (stereo unspecified)', 1),
  ('CCC(C)C(/N=C(\S)Nc1ccc(S(N)(=O)=O)cc1)C(=O)O (stereo unspecified)', 2),
  ('CC(/N=C(/S)Nc1ccc(S(N)(=O)=O)cc1)C(=O)NC(Cc1ccccc1)C(=O)O (stereo unspecified)', 0.2),
  ('NS(=O)(=O)c1ccc(NC(=S)N2CCCC2C(=O)O)cc1 (stereo unspecified)', 0);

* * *

Let's look at some compounds and their measured solubility.
ASSAY_NAME: physchem
RUN_CONDITIONS: buffer, pH 7.4
Description: Solubility (in uM) in pH 7.40 at 25 degree C
READOUT_NAME: solubility (mM)

INSERT INTO results (compound, reported_result) VALUES
  ('NC(=O)CC(/N=C(\S)Nc1ccc(S(N)(=O)=O)cc1)C(=O)O (stereo not given)', 51),
  ('NS(=O)(=O)c1ccc(NC(=S)NC(CC(=O)O)C(=O)O)cc1 (stereo not given)', 60),
  ('NS(=O)(=O)c1ccc(N/C(S)=N/C(CS)C(=O)O)cc1 (stereo not given)', 65),
  ('NS(=O)(=O)c1ccc(N/C(S)=N/C(C(=O)O)c2ccccc2)cc1 (stereo not given)', 54),
  ('NS(=O)(=O)c1ccc(N/C(S)=N/C(CO)C(=O)O)cc1 (stereo not given)', 73);
